Values from patent US7118895B2

- Tested on: Crude diglycosidase
- ASSAY_TEXT: Examination of temperature in the conversion into isoflavone aglycons by diglycosidase using soybean materials
- Format: biochemical, Penicillium multicolor IAM7153
- Parameters: concentration or dose not given beside the values
- PARTICULARS: 55 °C; heat treatment of enzyme: no; 0 h
OUTCOME_MEASURE: Decomposition efficiency of daidzin family in roasted soy flour (%)

- INPUT_SMILES: "CC(=O)OC[C@H]1O[C@@H](Oc2ccc3c(=O)c(-c4ccc(O)cc4)coc3c2)[C@H](O)[C@@H](O)[C@@H]1O"
  MEASUREMENT: 47.5
- INPUT_SMILES: "O=c1c(-c2ccc(O)cc2)coc2cc(O)ccc12"
  MEASUREMENT: 3.7
- INPUT_SMILES: "O=c1c(-c2ccc(O)cc2)coc2cc(O[C@@H]3O[C@H](CO)[C@@H](O)[C@H](O)[C@H]3O)ccc12"
  MEASUREMENT: 48.8

---

Recorded Decomposition efficiency of daidzin family in defatted soybean, one value per entry.
- System: Crude diglycosidase
- ASSAY_TEXT: Examination of pH in the conversion into isoflavone aglycons by diglycosidase using soybean materials
- Type: biochemical, Penicillium multicolor IAM7153
- Set-up: concentration or dose not given beside the values
- PARTICULARS: pH2.6; heat treatment of enzyme: no; reaction time 0 h
OUTCOME_MEASURE: Decomposition efficiency of daidzin family in defatted soybean (%)

- INPUT_SMILES: "O=c1c(-c2ccc(O)cc2)coc2cc(O[C@@H]3O[C@H](CO)[C@@H](O)[C@H](O)[C@H]3O)ccc12"
  UNIT_TEXT: "%"
  MEASUREMENT: 45.8
- INPUT_SMILES: "O=c1c(-c2ccc(O)cc2)coc2cc(O)ccc12"
  UNIT_TEXT: "%"
  MEASUREMENT: 13.2
- INPUT_SMILES: "O=C(O)CC(=O)OC[C@H]1O[C@@H](Oc2ccc3c(=O)c(-c4ccc(O)cc4)coc3c2)[C@H](O)[C@@H](O)[C@@H]1O"
  UNIT_TEXT: "%"
  MEASUREMENT: 41.0

---

- Tested on: Crude diglycosidase
- ASSAY_TEXT: Examination of pH in the conversion into isoflavone aglycons by diglycosidase using soybean materials
- Assay type: biochemical, Penicillium multicolor IAM7153
- PARTICULARS: pH4, heat treatment of enzyme yes, reaction time 6 h, 55° C.
OUTCOME_MEASURE: Decomposition efficiency of glycitin family in roasted soy flour

- COMPOUND: "COc1cc2c(=O)c(-c3ccc(O)cc3)coc2cc1O[C@@H]1O[C@H](CO)[C@@H](O)[C@H](O)[C@H]1O [glycitin]"
  TARGET_OR_TEST_SYSTEM: "Crude diglycosidase"
  MEASUREMENT: 55.1
- COMPOUND: "COc1cc2c(=O)c(-c3ccc(O)cc3)coc2cc1O[C@@H]1O[C@H](COC(C)=O)[C@@H](O)[C@H](O)[C@H]1O [acetylglycitin, 6″-O-acetylglycitin]"
  TARGET_OR_TEST_SYSTEM: "Crude diglycosidase"
  MEASUREMENT: 35.9
- COMPOUND: "COc1cc2c(=O)c(-c3ccc(O)cc3)coc2cc1O [glycitein]"
  TARGET_OR_TEST_SYSTEM: "Crude diglycosidase"
  MEASUREMENT: 9.0
